Parameter threshold = 3. Response is true when MDR1-MDCK efflux ratio meets or exceeds it, else false.

INSERT INTO assay_data (compound, classification) VALUES
  ('Clc1ccc(CSc2nc(-c3ccccc3)c[nH]2)cn1', 'false');

Textbook exercise: given the entry "CN(C)Cc1cccc(N/C(=C2\C(=O)Nc3cc(C(=O)N(C)C)ccc32)c2ccccc2)c1" , state whether its MDR1-MDCK efflux ratio is greater than or equal to 3.
true

I'd appreciate it if you could say whether "O=C(C1CCC1)N1CCC(c2ncc(-c3ccc(F)c(F)c3)[nH]2)CC1" has MDR1-MDCK efflux ratio at least equal to 3.
true

---

MDR1-MDCK efflux ratio vs 3: less than gives true; not less than gives false.

Some solved cases for reference:
INSERT INTO assay_data (compound, classification) VALUES
  ('Cn1nc(-c2cc(F)cc(F)c2)cc1N', 'true'),
  ('CC(C)=CCOc1cccc(C(=O)NN2CCOCC2)c1', 'true');

Hello, I'm reviewing records and need to know if MDR1-MDCK efflux ratio of "CC(C)(C)C(=O)N1CCC(CN2CCCC[C@@H]2CO)CC1" is below 3. Could you check?
false

Please indicate whether the reported MDR1-MDCK efflux ratio of CC1CCC(NC(=O)c2oc3ccccc3c2CS(C)=O)CC1 (stereo unspecified) is strictly below 3.
true

Determine if "COc1ccc(OCc2n[nH]c(-c3ncoc3C(C)C)n2)cc1" shows MDR1-MDCK efflux ratio strictly lower than 3.
true

I'd appreciate it if you could check whether "Cc1nn(C)c2ncnc(N(C)Cc3cccc(Cl)c3)c12" has MDR1-MDCK efflux ratio smaller than 3.
true

Take the compound "CC(C)(C)c1ccc(C(=O)Nc2cn3cc(-n4ccnc4)ccc3n2)cc1" and say whether its MDR1-MDCK efflux ratio is less than 3.
true

is_below(MDR1-MDCK efflux ratio, 3) for "Cc1ccc(C)c2c(O)cc(CN3CC(c4ccccn4)C3)nc12" ?
false

API: query returns whether the compound falls strictly under 3 in MDR1-MDCK efflux ratio. Query: "COc1cccc(OCCCn2cncc2-c2cc3c(cc2C)n(C)c(=O)n3C)c1"
false

Quick check: MDR1-MDCK efflux ratio of "COc1cccc(N(C)CCC(=O)N2CCC(c3ccc(-c4ccc(N)nc4)cn3)CC2)c1" under 3?
false

For this compound, is MDR1-MDCK efflux ratio lower than 3? "CC1CCN(CC(=O)Nc2nc(-c3c[nH]c4ccccc34)cs2)CC1"
true

---

Result Type: intrinsic clearance, rat liver microsomes

INSERT INTO measurements (compound, observed_measurement) VALUES
  ('CC(C)c1cc(C(C)C)c(CC(=O)NS(=O)(=O)Oc2c(C(C)C)cccc2C(C)C)c(C(C)C)c1', '170 mL/min/kg'),
  ('O=C(CC1CCN(c2ncc(Cl)cn2)CC1)N1CCOCC1', '46.9 mL/min/kg'),
  ('Nc1ncc(-c2cccc(C(F)(F)F)c2)c(C2CCCCN2C(=O)c2ccccc2)n1 (stereo not given)', '1510 mL/min/kg'),
  ('NC(=O)Cn1cc(-c2ccc(F)cc2)cn1', '≤ 10.7 mL/min/kg');

Continue with the compound presented below.
So for "N#Cc1c(O)nc2scc(-c3ccc(-c4ccccc4O)cc3)c2c1O" , the logged intrinsic clearance, rat liver microsomes turned out to be ≤ 10.7 mL/min/kg

---

Result Type: intrinsic clearance, human liver microsomes

For reference, reported intrinsic clearance, human liver microsomes for "O=c1[nH]c2ccccc2n1C1CCN(Cc2csc(COc3ccc(F)cc3)n2)CC1" stands at 209 mL/min/kg
